TARGET_DESC: UBE2T; note: test concentration or dose not given here
TEST_NAME: reporter assay of Huesken 2005
CONDITION_SET: siRNA
Oligonucleotides are written 5' to 3', each unit as a sugar letter and its base; * is a phosphorothioate linkage, no mark a phosphodiester; rarer units and linkages stand in square brackets, end groups in braces. Plain capitals give the bases only. d = 2'-deoxy (DNA); r = 2'-OH (RNA)
Kindly supply the reported normalised inhibition (eCFP-eYFP dual reporter) values for the records listed here.
Field: numeric (%). Do not append units.

Give the value of normalised inhibition (eCFP-eYFP dual reporter) reported for the following: sense rUrGrArGrArGrGrUrArCrCrCrArUrUrUrGrArAdTdT / antisense rUrUrCrArArArUrGrGrGrUrArCrCrUrCrUrCrAdGdG
87.4

Give the value of normalised inhibition (eCFP-eYFP dual reporter) reported for the following: sense rCrUrCrArGrArArUrUrUrArArArUrArUrArArUdTdT / antisense rArUrUrArUrArUrUrUrArArArUrUrCrUrGrArGdGdA
85.9

Give the value of normalised inhibition (eCFP-eYFP dual reporter) reported for the following: sense rGrArUrGrArGrGrArArGrArGrArUrGrCrUrUrGdTdT / antisense rCrArArGrCrArUrCrUrCrUrUrCrCrUrCrArUrCdAdG
95.1

Give the value of normalised inhibition (eCFP-eYFP dual reporter) reported for the following: sense rGrGrArArGrGrArUrUrUrGrUrCrUrGrGrArUrGdTdT / antisense rCrArUrCrCrArGrArCrArArArUrCrCrUrUrCrCdAdG
96.1

Give the value of normalised inhibition (eCFP-eYFP dual reporter) reported for the following: sense rGrCrUrUrGrArUrArArUrCrUrArCrCrArGrArGdTdT / antisense rCrUrCrUrGrGrUrArGrArUrUrArUrCrArArGrCdAdT
101

Give the value of normalised inhibition (eCFP-eYFP dual reporter) reported for the following: sense rUrArArArGrArCrCrArArArUrGrGrArUrGrArCdTdT / antisense rGrUrCrArUrCrCrArUrUrUrGrGrUrCrUrUrUrAdTdC
63.2

Give the value of normalised inhibition (eCFP-eYFP dual reporter) reported for the following: sense rArUrUrGrCrCrArCrCrArArArArGrGrUrGrCrUdTdT / antisense rArGrCrArCrCrUrUrUrUrGrGrUrGrGrCrArArUdTdT
43.8

Give the value of normalised inhibition (eCFP-eYFP dual reporter) reported for the following: sense rUrGrArArCrCrUrCrCrUrCrArGrArUrCrCrGrAdTdT / antisense rUrCrGrGrArUrCrUrGrArGrGrArGrGrUrUrCrAdAdA
105
